- testedOn: T1, human VEGF110 (human, UniProt P15692)
- T1 chain: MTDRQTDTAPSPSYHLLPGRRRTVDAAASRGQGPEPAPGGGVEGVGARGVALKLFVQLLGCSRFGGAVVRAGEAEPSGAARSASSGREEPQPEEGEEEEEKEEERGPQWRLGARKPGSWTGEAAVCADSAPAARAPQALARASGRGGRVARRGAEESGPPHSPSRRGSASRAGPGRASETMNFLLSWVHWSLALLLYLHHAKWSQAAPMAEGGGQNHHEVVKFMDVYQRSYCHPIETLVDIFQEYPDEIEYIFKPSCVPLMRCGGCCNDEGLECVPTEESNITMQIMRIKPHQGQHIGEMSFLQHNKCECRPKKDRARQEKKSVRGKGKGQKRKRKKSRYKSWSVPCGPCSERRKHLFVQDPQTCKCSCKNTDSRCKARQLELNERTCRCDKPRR
- procedureText: SPR, pH 5
Each entry below carries its reported pKd.
Kindly note that pKd refers to -log10 of the concentration in mol/L and answer with the value alone.

binder: 509-min (antibody, V domains shown) VH: EVQLVESGGGLVQPGGSLRLSCAASGFSLSSYYMCWVRQAPGKGLEWVSCLDYVGDTDYASWAKGRFTISRDNSKNTLYLQMNSLRAEDTAVYYCAKTDDSRGWGLNIWGQGTLVTVSS VL: EIVMTQSPSTLSASVGDRVIITCQASQNIRIWLSWYQQKPGKAPKLLIYKASTLESGVPSRFSGSGSGAEFTLTISSLQPDDFATYYCQNNAHYSTNGGTFGQGTKLTVLG
pKd: 8.78

Query string: Consider the binder 578-min (antibody, V domains shown) VH: EVQLVESGGGLVQPGGSLRLSCAASGFSLTDYYYMTWVRQAPGKGLEWVSFIDPDDDPYYATWAKGRFTISRDNSKNTLYLQMNSLRAEDTAVYYCAKGDHNSGWGLDIWGQGTLVTVSS VL: EIVMTQSPSTLSASVGDRVIITCQASEIIHSWLAWYQQKPGKAPKLLIYLASTLASGVPSRFSGSGSGAEFTLTISSLQPDDFATYYCQNVYLASTNGANFGQGTKLTVLG and give its measured pKd.
Result string: 7.94

Entry source: patent US10590193
